B1: library; numbered along this chain (parent)
chain: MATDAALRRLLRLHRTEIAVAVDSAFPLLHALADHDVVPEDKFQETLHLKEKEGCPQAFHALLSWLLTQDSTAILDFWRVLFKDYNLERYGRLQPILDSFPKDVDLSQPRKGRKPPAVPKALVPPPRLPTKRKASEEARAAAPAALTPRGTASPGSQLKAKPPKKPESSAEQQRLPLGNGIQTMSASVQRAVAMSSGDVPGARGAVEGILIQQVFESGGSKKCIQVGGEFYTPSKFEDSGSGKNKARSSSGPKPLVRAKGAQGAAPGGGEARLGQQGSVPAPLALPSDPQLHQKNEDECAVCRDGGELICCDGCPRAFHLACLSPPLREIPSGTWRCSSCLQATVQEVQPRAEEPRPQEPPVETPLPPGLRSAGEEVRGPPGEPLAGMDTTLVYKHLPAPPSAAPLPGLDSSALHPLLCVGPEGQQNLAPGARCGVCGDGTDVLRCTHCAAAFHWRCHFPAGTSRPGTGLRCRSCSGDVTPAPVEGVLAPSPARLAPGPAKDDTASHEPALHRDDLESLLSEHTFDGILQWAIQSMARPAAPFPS

# Variants of: B1
# measurement-protocol: AIRE transcriptional activation functional score (insulin promoter-GFP; nonsense median 0, synonymous median 1) (normalised score); higher = higher AIRE activity (more reporter activation)
# test-parameters: with insulin promoter-GFP reporter in HEK293
Mark not satisfied for AIRE transcriptional activation functional score values under 0.9, and satisfied for everything at or above.

Example entries begin here.
variant-identifier	assigned-label
I181E	not satisfied
L520F	not satisfied
Q262C	satisfied
Q275D	satisfied
G382I	not satisfied

Qu. Hi team, for F82D , is the recorded AIRE transcriptional activation functional score at or above 0.9?
Ans. not satisfied
